B1: Formin-binding protein 4, residues 200 to 261; numbered along this chain, Q8N3X1 (parent)
chain: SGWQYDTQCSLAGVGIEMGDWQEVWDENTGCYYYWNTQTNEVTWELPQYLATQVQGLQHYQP

- Variants of: B1
- ASSAY_INFO: abundance fitness (aPCA) (normalised: wild type 0, dead -1); higher = more abundant; growth selection in yeast, the domain comes from the species named
- SETTINGS: Homo sapiens
For each of the variants below, state its abundance fitness.
Please state the value as a number alone, without comment.

Give the measured abundance fitness of G2Y .
0.422

Could you tell me which abundance fitness is on file for P47V ?
-0.583

Could you share which abundance fitness value was measured for T39K ?
-0.123

What measured abundance fitness goes with G15P ?
-0.03

# query: abundance fitness of entry Q53I
-0.611

Any idea what its abundance fitness is? The variant is Y32C
-0.478

// query abundance fitness value for entry W3Y
0.012

Field request: abundance fitness | item: T43S
-0.021
